System: S-AMACH smooth pigweed
Assay: Greenhouse screen of ALS-inhibiting herbicides on susceptible smooth pigweed biotype
Format: in vivo, Amaranthus hybridus L.
Conditions: rate 100×, 3 WAT
measured.quantity: Height (cm)
State the answer as a number, implicitly in cm.

>>> df
                                   molecule  readout_number
0  COc1nc(C)nc(NC(=O)NS(=O)(=O)c2ccsc2C(=O)O)n1 [thifensulfuron]             0.5

Read the next record carefully.
**Q:** # input molecule: COc1cc(Cl)nc(NC(=O)NS(=O)(=O)c2ccccc2C(=O)O)n1 [chlorimuron] ; wanted: its Height
**A:** 1.3
